experiment: Half life in mouse liver microsomes; format: ADME, Microsome
So basically, if half-life comes in under 8 min it's true (1), and if it's 8 min or more it's false (0).

Recorded results for 5 compounds are shown here.
COMPOUND: C=CC[C@@H]1/C=C(\C)C[C@H](C)C[C@H](OC)[C@H]2O[C@@](O)(C(=O)C(=O)N3CCCC[C@H]3C(=O)O[C@H](/C(C)=C/[C@H]3CC=CCC3)[C@H](C)[C@@H](O)CC1=O)[C@H](C)C[C@@H]2OC
ANSWER_LABEL: true (1)
//
COMPOUND: C=CC[C@@H]1/C=C(\C)C[C@H](C)C[C@H](OC)[C@H]2O[C@@](O)(C(=O)C(=O)N3CCCC[C@H]3C(=O)O[C@H](/C(C)=C/[C@H]3CC[C@H](O)CC3)[C@H](C)[C@@H](O)CC1=O)[C@H](C)C[C@@H]2OC
ANSWER_LABEL: false (0)
//
COMPOUND: CC[C@@H]1/C=C(\C)C[C@H](C)C[C@H](OC)[C@H]2O[C@@](O)(C(=O)C(=O)N3CCCC[C@H]3C(=O)O[C@H](/C(C)=C/C3CCOCC3)[C@H](C)[C@@H](O)CC1=O)[C@H](C)C[C@@H]2OC
ANSWER_LABEL: true (1)
//
COMPOUND: CC[C@@H]1/C=C(\C)C[C@H](C)C[C@H](OC)[C@H]2O[C@@](O)(C(=O)C(=O)N3CCCC[C@H]3C(=O)O[C@H](/C(C)=C/[C@@H]3CC[C@@H](O)[C@@H](F)C3)[C@H](C)[C@@H](O)CC1=O)[C@H](C)C[C@@H]2OC
ANSWER_LABEL: false (0)
//
COMPOUND: CC[C@@H]1/C=C(\C)C[C@H](C)C[C@H](OC)[C@H]2O[C@@](O)(C(=O)C(=O)N3CCCC[C@H]3C(=O)O[C@H](/C(C)=C/[C@H]3CCCC(O)CC3)[C@H](C)[C@@H](O)CC1=O)[C@H](C)C[C@@H]2OC (some centres not stated)
ANSWER_LABEL: true (1)

# check: half-life < 8 min for C=CC[C@@H]1/C=C(\C)C[C@H](C)C[C@H](OC)[C@H]2O[C@@](O)(C(=O)C(=O)N3CCCC[C@H]3C(=O)O[C@H](/C(C)=C/[C@@H]3CC[C@@H](O)[C@H](OC)C3)[C@H](C)[C@@H](O)CC1=O)[C@H](C)C[C@@H]2OC [TACROLIMUS ANHYDROUS] false (0)

# check: half-life < 8 min for `CC[C@@H]1/C=C(\C)C[C@H](C)C[C@H](OC)[C@H]2O[C@@](O)(C(=O)C(=O)N3CCCC[C@H]3C(=O)O[C@H](/C(C)=C/[C@@H]3CC[C@@H](O)[C@H](OC)C3)[C@H](C)[C@@H](O)CC1=O)[C@H](C)C[C@@H]2OC` false (0)

Data origin: ChEMBL document CHEMBL3132793
